Molecular target: glucagon receptor (UniProt P47871 26-477, limits assumed)
Sequence (P47871 26-477 limits assumed): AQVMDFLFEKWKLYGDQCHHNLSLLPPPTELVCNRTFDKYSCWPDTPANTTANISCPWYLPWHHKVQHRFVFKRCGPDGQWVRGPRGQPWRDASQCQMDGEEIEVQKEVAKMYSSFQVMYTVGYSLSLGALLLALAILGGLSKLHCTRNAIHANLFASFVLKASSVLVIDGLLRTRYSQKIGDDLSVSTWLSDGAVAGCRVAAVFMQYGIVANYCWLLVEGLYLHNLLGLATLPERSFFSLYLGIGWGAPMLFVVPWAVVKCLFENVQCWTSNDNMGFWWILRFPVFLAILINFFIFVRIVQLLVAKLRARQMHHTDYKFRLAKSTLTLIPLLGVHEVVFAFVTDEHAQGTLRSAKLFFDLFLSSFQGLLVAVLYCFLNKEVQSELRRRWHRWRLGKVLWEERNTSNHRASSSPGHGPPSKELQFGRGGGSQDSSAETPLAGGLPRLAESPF
Test: cell-based or functional assay
Numbered stars: 1 amine (or outer) side, 2 acyl side, 3 side chain; on linkers, the order of the positions; unused ones are H or OH. Square brackets hold non-standard residues; d marks the D form. Side chains are listed from the residue outwards. Ends that are not written are not given here. * marks the point of attachment. γGlu = O=C(O)[C@H](CCC(=O)[*:2])N[*:1]; Desaminohistidyl = O=C(CCc1c[nH]cn1)*; Desaminotyrosyl = O=C(CCc1ccc(O)cc1)*; Palmitoyl = CCCCCCCCCCCCCCCC(=O)*
Quick list: EC50 at Glucagon Receptor (cAMP luciferase reporter, HEK293) per entry.
MEASUREMENT TYPE: EC50 at Glucagon Receptor (cAMP luciferase reporter, HEK293) (nM)

- BINDER: "[Desaminohistidyl]GQGTFTSDK([γGlu-Palmitoyl])SKYLDERAAQDFVQWLLEGGPSSGAPPPS-NH2 [peptide of SEQ ID NO: 31]"
  MEASURED RESULT: 0.022
- BINDER: "[dY]AQGTFTSDK([γGlu-Palmitoyl])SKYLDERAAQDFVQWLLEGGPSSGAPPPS-NH2 [peptide of SEQ ID NO: 15]"
  MEASURED RESULT: 0.05
- BINDER: "[Desaminotyrosyl]AQGTFTSDK([γGlu-Palmitoyl])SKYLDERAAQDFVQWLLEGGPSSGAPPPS-NH2 [peptide of SEQ ID NO: 11]"
  MEASURED RESULT: 0.016
